assay: Cmax in human at 12 g, po administered as single dose; type: ADME, organism-based; parameters: dose 12 g, route oral; conditions: in vivo
assay-readout: Cmax

INPUT: Fill blank: measured Cmax of the compound COc1cc(/C=C/C(=O)CC(=O)/C=C/c2ccc(O)c(OC)c2)ccc1O [CURCUMIN] is ____.
OUTPUT: 1730 ng/mL

* * *

assay: Cmax in human at 10 g, po administered as single dose; assay type: ADME, organism-based; set-up: dose 10 g, route oral; details: in vivo
assay-readout: Cmax
Please answer in the form of a number followed by its unit of measurement.

INPUT: # lookup: Cmax of COc1cc(/C=C/C(=O)CC(=O)/C=C/c2ccc(O)c(OC)c2)ccc1O [CURCUMIN]
OUTPUT: 2.3 µg/mL

* * *

test: Half life in human at 12 g, po administered as single dose; type: ADME, organism-based; settings: in vivo
assay-readout: half-life (h)
Reply numerically in h, unit not repeated.

INPUT: Consider the compound `COc1cc(/C=C/C(=O)CC(=O)/C=C/c2ccc(O)c(OC)c2)ccc1O` and give its measured half-life.
OUTPUT: 6.77

* * *

assay: Drug uptake in human serum at 6 g/day, po administered for 3 months; assay type: ADME, organism-based; conditions: read-out: Drug uptake
assay-readout: concentration at 3 months (µM)
Write the number in µM without appending the unit.

INPUT: Field request: concentration at 3 months | item: COc1cc(/C=C/C(=O)CC(=O)/C=C/c2ccc(O)c(OC)c2)ccc1O [CURCUMIN]
OUTPUT: 0.63

* * *

experiment: Tmax in human at 12 g, po administered as single dose; assay type: ADME, organism-based; conditions: in vivo
assay-readout: Tmax (h)
Just the number in h, nothing appended.

INPUT: Which measured Tmax value corresponds to `COc1cc(/C=C/C(=O)CC(=O)/C=C/c2ccc(O)c(OC)c2)ccc1O` ?
OUTPUT: 3.29

* * *

assay: Drug uptake in human serum at 8 g/day, po administered for 3 months; type: ADME, organism-based; conditions: read-out: Drug uptake
assay-readout: concentration at 3 months (nM)
Express it in nM; write the number only.

INPUT: Field request: concentration at 3 months | item: `COc1cc(/C=C/C(=O)CC(=O)/C=C/c2ccc(O)c(OC)c2)ccc1O`
OUTPUT: 1770
